Assay: Antagonist activity at NR1/NR2B NTD truncated mutant receptor expressed in Xenopus oocytes assessed as ratio of residual current induced by agonist in presence of compound to residual current induced by agonist alone at 10 uM by two-electrode voltage-clamp method
Format: functional, Oocyte
property_label: Ratio

Some solved entries appear below for comparison.
structure=CC(=O)Nc1ccc(N2C(=O)C[C@@H](N3CCc4[nH]c5ccccc5c4C3)C2=O)cc1 reported_result=0.98
structure=CC(=O)Nc1ccc2c(c1)CN(Cc1ccc(Cl)cc1)CO2 reported_result=0.88
structure=O=C1N=C(N2CCN(Cc3ccccc3)CC2)S/C1=C\c1ccccc1O reported_result=0.96
structure=O=C1N=C(N2CCN(c3ccccc3)CC2)S/C1=C\c1ccc(O)cc1 reported_result=0.96
structure=CCN(CC)CCCOC(=O)c1ccc(O)cc1O reported_result=0.97

Query: I have this molecule here, O=C1N=C(N2CCN(Cc3ccccc3)CC2)S/C1=C/c1ccc(O)cc1 , and I need its recorded Ratio.
Response: 0.96

Query: What does the data say about its Ratio? Entry: O=C1N=C(N2CCN(c3ccccc3)CC2)S/C1=C/c1ccc(O)cc1
Response: 0.96

Query: If you can, please state the reported Ratio value of Nc1ccc(N2CCN(Cc3ccccc3Cl)CC2)cc1 .
Response: 0.98

Query: Which Ratio value belongs to COc1cc(/C=C2/SC(N3CCN(Cc4ccccc4)CC3)=NC2=O)ccc1O ?
Response: 0.97

Query: What value of Ratio has been recorded for this entry: O=C1N=C(N2CCN(Cc3ccccc3)CC2)S/C1=C\c1ccc(O)cc1O
Response: 0.92

Query: Find the recorded Ratio belonging to CCN1CCN(C2=NC(=O)/C(=C/c3ccc(O)cc3)S2)CC1 and report it.
Response: 0.96

Query: For the molecule shown here, O=C1N=C(N2CCN(c3ccc(F)cc3)CC2)S/C1=C\c1ccc(O)cc1 , give the reported Ratio.
Response: 0.96

Query: Quick one: Ratio of COc1cc(/C=C2\SC(N3CCN(c4ccc(C)cc4)CC3)=NC2=O)ccc1O ?
Response: 0.97

Query: May I ask what Ratio has been recorded for O=C(CN1CCc2[nH]c3ccccc3c2C1)c1c[nH]c2ccccc12 ?
Response: 0.94

Query: Would you kindly share the measured Ratio for COc1cc(/C=C2\SC(N3CCN(c4cccc(C)c4)CC3)=NC2=O)ccc1O ?
Response: 0.96

Query: Record request: Ratio value, item COc1cc(/C=C2\SC(N3CCN(c4ccc(C)c(Cl)c4)CC3)=NC2=O)ccc1O
Response: 0.97

Query: Can you look up the measured Ratio of COc1cc(/C=C2\SC(Nc3cccc(Cl)c3Cl)=NC2=O)ccc1O for me?
Response: 0.96

Query: Consider the molecule O=C1N=C(N2CCN(Cc3ccccc3)CC2)S/C1=C\c1ccccc1 and give its measured Ratio.
Response: 0.97

Query: Given O=C1N=C(N2CCN(c3cccc(Cl)c3)CC2)S/C1=C\c1ccc(O)cc1 , state its recorded Ratio.
Response: 0.92

Query: Which Ratio reading was recorded for the molecule O=C1N=C(N2CCN(Cc3ccccc3)CC2)S/C1=C\c1ccc(O)cc1 ?
Response: 0.96

Query: // Ratio lookup, key: N=C1/C(=C/c2ccc(O)cc2)C(=O)N=C2SC(Cc3ccc(Cl)cc3)=NN12
Response: 0.97

Query: Which value of Ratio has been reported for COc1cc(CN2CCN(Cc3cccc(C)c3)CC2)cc(OC)c1O in the records?
Response: 0.97

---

Target: Glutamate NMDA receptor; GRIN1/GRIN2B (Homo sapiens, UniProt Q05586+Q13224)
Assay: Antagonist activity at wild type NR1/NR2B receptor expressed in Xenopus oocytes assessed as ratio of residual current induced by agonist in presence of compound to residual current induced by agonist alone at 10 uM by two-electrode voltage-clamp method
Type: functional, cell-based
Settings: Oocyte
property_label: Ratio
Give only the figure.

structure=O=C(CN1CCc2[nH]c3ccccc3c2C1)c1c[nH]c2ccccc12 target_under_test="Glutamate NMDA receptor; GRIN1/GRIN2B (Homo sapiens, UniProt Q05586+Q13224)" property_label=Ratio reported_result=0.9

Query: Could you tell me which Ratio is on file for O=C1N=C(N2CCN(Cc3ccccc3)CC2)S/C1=C\c1ccc(O)cc1O ?
Response: 0.18

Query: Which Ratio is listed for O=C1N=C(N2CCN(Cc3ccccc3)CC2)S/C1=C\c1ccccc1 ?
Response: 0.95

Query: Any idea what Ratio was measured for O=C1N=C(N2CCN(c3ccccc3)CC2)S/C1=C/c1ccc(O)cc1 ?
Response: 0.74

Query: Consider the compound shown here: O=C1N=C(N2CCN(Cc3ccccc3)CC2)S/C1=C/c1ccc(O)cc1 What is its recorded Ratio?
Response: 0.15

Query: Sample O=C1N=C(N2CCN(Cc3ccccc3)CC2)S/C1=C\c1ccccc1O — what was its Ratio?
Response: 0.96

Query: Which value of Ratio has been reported for O=C1N=C(N2CCN(c3ccc(F)cc3)CC2)S/C1=C\c1ccc(O)cc1 in the records?
Response: 0.75

Query: Item O=C1N=C(N2CCN(Cc3ccccc3)CC2)S/C1=C\c1ccc(O)cc1 has what recorded Ratio?
Response: 0.22

Query: Given CCN(CC)CCCOC(=O)c1ccc(O)cc1O , state its recorded Ratio.
Response: 0.94

Query: # get_value(readout='Ratio', item= COc1cc(/C=C2\SC(Nc3cccc(Cl)c3Cl)=NC2=O)ccc1O )
Response: 0.925

Query: Query (compound): COc1cc(/C=C2\SC(N3CCN(c4cccc(C)c4)CC3)=NC2=O)ccc1O ; field requested: Ratio
Response: 0.95

---

Quick reference: Ratio of the listed items.
Target: Glutamate NMDA receptor; GRIN1/GRIN2B (Homo sapiens, UniProt Q05586+Q13224)
Assay: Antagonist activity at wild type NR1/NR2B receptor expressed in Xenopus oocytes assessed as ratio of residual current induced by agonist in presence of compound to residual current induced by agonist alone at 10 uM by two-electrode voltage-clamp method
Assay type: functional, cell-based
Conditions: Oocyte
Returns: the value as a bare number; no unit string appended.

structure=O=C1N=C(N2CCN(c3ccccc3)CC2)S/C1=C\c1ccc(O)cc1 property_label=Ratio reported_result=0.75

Query: So what's the measured Ratio for this one? COc1cc(/C=C2\SC(N3CCN(c4ccc(C)c(Cl)c4)CC3)=NC2=O)ccc1O
Response: 0.9

Query: Data request, read-out Ratio, for CC(=O)Nc1ccc2c(c1)CN(Cc1ccc(Cl)cc1)CO2
Response: 0.83

Query: Bench note: what Ratio did COc1cc(CN2CCN(Cc3cccc(C)c3)CC2)cc(OC)c1O show?
Response: 0.96

Query: Requested field: Ratio. Item: CC(=O)Nc1ccc(N2C(=O)C[C@@H](N3CCc4[nH]c5ccccc5c4C3)C2=O)cc1
Response: 0.97

Query: For the compound Nc1ccc(N2CCN(Cc3ccccc3Cl)CC2)cc1 , what Ratio is on record?
Response: 0.98

---

Target: Glutamate NMDA receptor; GRIN1/GRIN2A (Homo sapiens) (UniProt Q05586+Q12879)
Assay: Antagonist activity at wild type NR1/NR2A receptor expressed in Xenopus oocytes assessed as ratio of residual current induced by agonist in presence of compound to residual current induced by agonist alone at 10 uM by two-electrode voltage-clamp method
Format: functional, cell-based
Conditions: Oocyte
Each record here notes measured Ratio.

Field: example entries. Status: answers known.
structure=CC(=O)Nc1ccc2c(c1)CN(Cc1ccc(Cl)cc1)CO2 reported_result=0.77
structure=Nc1ccc(N2CCN(Cc3ccccc3Cl)CC2)cc1 reported_result=0.97
structure=O=C1N=C(N2CCN(Cc3ccccc3)CC2)S/C1=C\c1ccc(O)cc1O reported_result=0.92
structure=O=C1N=C(N2CCN(Cc3ccccc3)CC2)S/C1=C\c1ccc(O)cc1 reported_result=0.94
structure=CC(=O)Nc1ccc(N2C(=O)C[C@@H](N3CCc4[nH]c5ccccc5c4C3)C2=O)cc1 reported_result=0.98

Query: May I ask what Ratio has been recorded for O=C1N=C(N2CCN(c3ccccc3)CC2)S/C1=C\c1ccc(O)cc1 ?
Response: 0.88

Query: Which measured Ratio value corresponds to COc1cc(CN2CCN(Cc3cccc(C)c3)CC2)cc(OC)c1O ?
Response: 0.98

---

Molecular target: Glutamate NMDA receptor; GRIN1/GRIN2B (Homo sapiens, UniProt Q05586+Q13224)
Test: Antagonist activity at wild type NR1/NR2B receptor expressed in Xenopus oocytes assessed as inhibition of agonist-induced current amplitude by two-electrode voltage-clamp method
Rule for this label: YES means IC50 is less than 2000 nM; NO means IC50 is at least 2000 nM.

structure=O=C1N=C(N2CCN(c3ccc(F)cc3)CC2)S/C1=C\c1ccc(O)cc1 target_under_test="Glutamate NMDA receptor; GRIN1/GRIN2B (Homo sapiens, UniProt Q05586+Q13224)" category_label=NO
structure=O=C1N=C(N2CCN(Cc3ccccc3)CC2)S/C1=C\c1ccc(O)cc1O target_under_test="Glutamate NMDA receptor; GRIN1/GRIN2B (Homo sapiens, UniProt Q05586+Q13224)" category_label=YES
structure=COc1cc(/C=C2/SC(N3CCN(Cc4ccccc4)CC3)=NC2=O)ccc1O target_under_test="Glutamate NMDA receptor; GRIN1/GRIN2B (Homo sapiens, UniProt Q05586+Q13224)" category_label=NO
structure=O=C1N=C(N2CCN(Cc3ccccc3)CC2)S/C1=C/c1ccc(O)cc1 target_under_test="Glutamate NMDA receptor; GRIN1/GRIN2B (Homo sapiens, UniProt Q05586+Q13224)" category_label=YES

Please examine the following record next.
Query: Consider O=C1N=C(N2CCN(Cc3ccccc3)CC2)S/C1=C\c1ccc(O)cc1 . Does its IC50 lie strictly below 2000 nM?
Response: NO
